Source: patent US20060234940A1

Target: T1, porcine kidney DP IV, wild type (porcine, UniProt P22411 38-766, natively glycosylated (Asn279 among others, as seen in the crystal))
T1 construct: In the crystal a 2-2-2 symmetric tetramer (dimer of dimers); also called p wt DP IV; p wt
T1 sequence (P22411 38-766): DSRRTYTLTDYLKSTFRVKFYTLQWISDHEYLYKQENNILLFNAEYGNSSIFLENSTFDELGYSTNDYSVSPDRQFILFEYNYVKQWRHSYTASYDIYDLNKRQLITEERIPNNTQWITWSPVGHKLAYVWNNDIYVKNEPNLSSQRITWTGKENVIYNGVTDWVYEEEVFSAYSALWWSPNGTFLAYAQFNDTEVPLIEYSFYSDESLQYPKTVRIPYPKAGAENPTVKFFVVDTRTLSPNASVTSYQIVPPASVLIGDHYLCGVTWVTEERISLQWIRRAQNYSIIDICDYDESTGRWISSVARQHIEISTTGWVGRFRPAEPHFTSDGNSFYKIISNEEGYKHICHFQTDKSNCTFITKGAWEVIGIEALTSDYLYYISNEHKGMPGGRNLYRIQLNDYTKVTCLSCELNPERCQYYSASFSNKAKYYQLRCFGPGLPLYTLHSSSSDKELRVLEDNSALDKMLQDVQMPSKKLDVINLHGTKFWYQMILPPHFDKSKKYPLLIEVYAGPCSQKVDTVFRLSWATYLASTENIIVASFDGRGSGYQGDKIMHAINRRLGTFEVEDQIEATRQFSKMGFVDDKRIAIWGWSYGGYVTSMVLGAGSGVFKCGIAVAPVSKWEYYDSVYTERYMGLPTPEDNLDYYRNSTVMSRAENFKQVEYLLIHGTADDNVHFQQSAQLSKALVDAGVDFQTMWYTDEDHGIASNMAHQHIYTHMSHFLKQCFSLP
Test: MALDI-TOF MS, inhibition of DP IV-catalyzed truncation of the substrate RANTES1-15 after preincubation with TFTSDY
endpoint.label: Ki

The binder identified as TFTSDY (also called glucagon5-10; T(5)-F-T-S-D-Y) [hexapeptide TFTSDY] registered its Ki at 12.3 mM
